Tested on: ACHN renal
Test name: NCI tumour cell line growth inhibition, 48 h
Endpoint: GI50

Reported GI50 for `CCOC(=O)c1sc2ncn(Cc3cccc(Cl)c3)c(=O)c2c1C` was 14.7 µM

Reported GI50 for `COc1ccc(C(=O)c2cc(OC)c(OC)c(OC)c2)cc1/C=C/C(=O)c1ccc(O)cc1` was 5.22 µM

Reported GI50 for O=P(Oc1ccccc1)(Oc1ccccc1)C(O)c1ccccc1 (centres undefined) was > 100 µM

Reported GI50 for `C=C(CN1CCc2ccccc2C1)c1ccc(/C=C/C(=O)Nc2ccccc2N)cc1` was 5.4 µM

Reported GI50 for `COc1ccc(-n2c(-c3ccc(NC(=O)CCCl)cc3)nnc2-c2cc(OC)c(OC)c(OC)c2)cc1` was 2.21 µM

Reported GI50 for `COc1ccc(-c2nc3sccn3c2/C=C/C(=O)c2cc(OC)c(OC)c(OC)c2)cc1OC` was 3.24 µM

Reported GI50 for CC(C)(C)[Si](C)(C)OC1[C@@H](O[Si](C)(C)C(C)(C)C)[C@@H](CNC(=O)NC(=O)NC(=O)CI)O[C@H]1n1cnc2c(NC(=O)Nc3ccccc3)ncnc21 (some centres undefined) was 1.41 µM

Reported GI50 for `OCc1ccc(N(Cc2ccc(F)cc2)C2CCC2)cc1Cl` was 13.2 µM

Reported GI50 for `Clc1ccc(N2COOC3(OOC2)C2CC4CC(C2)CC3C4)cc1` was 0.622 µM

Reported GI50 for `COc1ccc(/C=C(\C#N)n2nnc3cc(Cl)ccc32)cc1` was 0.593 µM

Reported GI50 for `CCNCCNc1cc(-c2ccc(Cl)cc2)c(C#N)c2nc3ccccc3n12` was 1.48 µM

Reported GI50 for `Clc1ccc(Nc2ccnc(NCCNc3ccnc4cc(Cl)ccc34)n2)cc1` was 1.63 µM

Reported GI50 for `COC(=O)c1ccc(-c2nc3cc(F)c(F)cc3nc2C#N)cc1` was 11.5 µM

Reported GI50 for `Cc1c2ncccc2c(C)c2c1[nH]c1ccc(O)cc12` was 3.06 µM

----------
System: SK-OV-3 ovarian
Test name: NCI tumour cell line growth inhibition, 48 h
Endpoint: TGI (µM)
Write the answer as a number in µM, unit excluded.

Reported TGI for `COc1c(O)cc2oc3cc(O)c(CC=C(C)C)c(O)c3c(=O)c2c1C/C=C(\C)CCC=C(C)C` was 10.4

Reported TGI for `COc1ccc2c(CN3CCC(CO)CC3)cc3cc4c(cc3c2c1)OCO4` was 3.83

Reported TGI for COC(=O)C1=C(O)C(C(=O)OC)[C@]2(O)[C@H](C(=O)OC)[C@H]1C[C@@H](c1ccc(O)cc1)[C@H]2C(=O)OC (stereo not given in full) was 61.6

Reported TGI for `CCOC(=O)c1sc2ncn(Cc3cccc(Cl)c3)c(=O)c2c1C` was 31.2

----------
Tested on: HOP-92 NSCLC
Test name: NCI tumour cell line growth inhibition, 48 h; in the data active = GI50 below about 0.43 µM; inactive = the rest
Result category, one only: active, inactive

Field: outcome | Entry: `COc1ccc2c(CN3CCC(CO)CC3)cc3cc4c(cc3c2c1)OCO4` active

Field: outcome | Entry: `Cc1ccc2c(/C=C/C(=O)c3cc(CN4CCOCC4)c(O)c4nc(C)ccc34)cc(CN3CCOCC3)c(O)c2n1` inactive

Field: outcome | Entry: `N.N.NCCCCN.O=C([O-])CC(=O)[O-].O=C([O-])CC(=O)[O-].[Pt+4].[Pt+4]` inactive

Field: outcome | Entry: `COc1cc(-c2cc(C(=O)Nc3nc4ccccc4s3)nc3cc(-c4ccccc4)nn23)cc(OC)c1OC` inactive

Field: outcome | Entry: `O=C(Nc1ncc([N+](=O)[O-])s1)c1cccc([N+](=O)[O-])c1` inactive

Field: outcome | Entry: CC1=C(C(=O)Nc2ccc(F)c(Cl)c2)C(c2cccc(O)c2)NC(=S)N1 (stereo unspecified) inactive
